These measurements were taken from patent US20170152313A1.

Attribute: Kd
target: T1, APP-Avi-soluble cynomolgus monkey LOX-1 (61-273) (cynomolgus monkey, biotinylated at the Avi tag when immobilised in the SET assay); experiment: solution equilibrium titration (SET), MSD read-out
T1 construct: Expressed and purified in the same way as the human protein; also called cynomolgus monkey soluble LOX-1; Cynomolgus Monkey Soluble APP-Avi-LOX-1
T1 sequence (chain, as listed by the source): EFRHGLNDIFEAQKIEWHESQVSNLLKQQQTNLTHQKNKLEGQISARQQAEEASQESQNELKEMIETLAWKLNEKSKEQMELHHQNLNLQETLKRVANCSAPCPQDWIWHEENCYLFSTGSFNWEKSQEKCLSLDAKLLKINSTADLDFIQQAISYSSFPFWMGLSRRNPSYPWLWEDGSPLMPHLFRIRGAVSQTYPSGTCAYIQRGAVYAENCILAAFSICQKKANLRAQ
Give the number; pM is assumed, so skip it.

binder	Kd (pM)
FF3 (antibody, human IgG1, kappa, L234A L235A, V domains shown, Humaneered variant of E2E10, tested as full human IgG; Biotinylated for the neutrophil assay; also called LLG785; LLG785 (FF3)) VH: QVQLVQSGAEVKKPGASVKVSCKASGYTFTDYEVHWVRQAPGQGLEWMGAIHPGSGGAAYVQKFQGRVTMTRDTSISTAYMELSRLRSDDTAVYYCARWLPMDYWGQGTLVTVSS VL: DIQMTQSPSSVSASVGDRVTITCRASQGINNWLVWYQQKPGKAPKLLIYAASSLQSGVPSRFSGSGSGADYTLTISSLQPEDFATYYCQQYLITPYTFGQGTKLEIKR	3.4
FF1 (antibody, human IgG1, kappa, L234A L235A, V domains shown, Humaneered variant of E2E10, tested as full human IgG (captured or detected with anti-human IgG); Biotinylated for the neutrophil assay; also called LLG783; LLG783 (FF1)) VH: QVQLVQSGAEVKKPGASVKVSCKASGYTFTDYEVHWVRQAPGQGLEWMGAIHPGSGGAAYVQKFQGRVTMTRDTSTSTAYMELSSLRSDDTAVYYCARWLPMDYWGQGTLVTVSS VL: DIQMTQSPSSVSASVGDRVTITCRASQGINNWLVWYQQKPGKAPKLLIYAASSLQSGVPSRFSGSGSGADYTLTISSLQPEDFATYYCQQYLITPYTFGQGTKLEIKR	1.8
FF5 (antibody, human IgG1, kappa, L234A L235A, V domains shown, Humaneered variant of E2E10, tested as full human IgG; Biotinylated for the neutrophil assay; also called LLG787; LLG787 (FF5)) VH: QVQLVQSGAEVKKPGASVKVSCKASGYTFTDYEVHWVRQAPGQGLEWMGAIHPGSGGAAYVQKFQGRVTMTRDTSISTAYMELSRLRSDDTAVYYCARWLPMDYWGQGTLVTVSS VL: DIQMTQSPSSVSASVGDRVTITCRASQGINNWLVWYQQKPGKAPKLLLYAASRLESGVPSRFSGSGSGTDYTLTISSLQPEDIATYYCQQYLITPYTFGQGTKLEIKR	0.6
FF4 (antibody, human IgG1, kappa, L234A L235A, V domains shown, Humaneered variant of E2E10, tested as full human IgG; the text and claims pair heavy chain 56 with light chain 66; Biotinylated for the neutrophil assay; also called LLG786; LLG786 (FF4)) VH: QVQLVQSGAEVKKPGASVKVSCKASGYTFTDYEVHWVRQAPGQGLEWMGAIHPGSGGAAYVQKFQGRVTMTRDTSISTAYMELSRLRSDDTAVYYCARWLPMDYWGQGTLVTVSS VL: DIQMTQSPSSVSASVGDRVTITCRASQGITNWLAWYQQKPGKAPKLLIYAASILESGVPSRFSGSGSGTDYTLTISSLQPEDIATYYCQQYLITPYTFGQGTKLEIKR	0.7

Query: # query: Kd of entry FF6 (antibody, human IgG1, kappa, L234A L235A, V domains shown, Humaneered variant of E2E10, tested as full human IgG; Biotinylated for the neutrophil assay; also called LLG788; LLG788 (FF6)) VH: QVQLVQSGAEVKKPGASVKVSCKASGYTFTDYEVHWVRQAPGQGLEWMGAIHPGSGGAAYVQKFQGRVTMTRDTSISTAYMELSRLRSDDTAVYYCARWLPIDYWGQGTLVTVSS VL: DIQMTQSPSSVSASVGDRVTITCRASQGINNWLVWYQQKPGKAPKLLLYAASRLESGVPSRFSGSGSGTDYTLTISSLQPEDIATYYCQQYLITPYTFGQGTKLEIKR
Response: 1.6
